- protocol-description: Biodistribution studies in BALB/c mice
- Type: in vivo
- condition-label: female, mouse, iv, total radioactivity; Muscle, 30 min p.i., healthy BALB/c mice, 0.1 nmol i.v.; read-out: Biodistribution data, Muscle
metric: tissue uptake at 0.5 h (%ID/g)
Answers are plain numbers, in %ID/g.

Quick note, tissue uptake at 0.5 h for NC(=O)CNC(=O)CNC(=O)[C@H](CCCCNC(=O)CCCCc1cn(C2O[C@H](CO)[C@H](O)[C@H](O)[C@H]2O)nn1)NC(=O)CNC(=O)CNC(=O)[C@H](CCCCNC(=O)CCCCc1cn(C2O[C@H](CO)[C@H](O)[C@H](O)[C@H]2O)nn1)NC(=O)CNC(=O)CNC(=O)[C@H](CCCCNC(=O)CCCCc1cn(C2O[C@H](CO)[C@H](O)[C@H](O)[C@H]2O)nn1)NC(=O)CCCNC(=O)CC[C@H](C(=O)O)N1CCN(CC(=O)O)CCN(CC(=O)O)CC1 (stereo partly shown) [[68Ga]Ga-TriLysan, metal not drawn] landed at 0.4

* * *

- protocol-description: Biodistribution studies in BALB/c mice
- Format: in vivo
- condition-label: female, mouse, iv, total radioactivity; Heart, 60 min p.i., healthy BALB/c mice, 0.1 nmol i.v.; read-out: Biodistribution data, Heart
metric: tissue uptake at 1 h (%ID/g)
One number for each entry, in %ID/g.

Quick note, tissue uptake at 1 h for NC(=O)CNC(=O)CNC(=O)[C@H](CCCCNC(=O)CCCCc1cn(C2O[C@H](CO)[C@H](O)[C@H](O)[C@H]2O)nn1)NC(=O)CNC(=O)CNC(=O)[C@H](CCCCNC(=O)CCCCc1cn(C2O[C@H](CO)[C@H](O)[C@H](O)[C@H]2O)nn1)NC(=O)CNC(=O)CNC(=O)[C@H](CCCCNC(=O)CCCCc1cn(C2O[C@H](CO)[C@H](O)[C@H](O)[C@H]2O)nn1)NC(=O)CCCNC(=O)CC[C@H](C(=O)O)N1CCN(CC(=O)O)CCN(CC(=O)O)CC1 (stereo partly shown) [[68Ga]Ga-TriLysan, metal not drawn] landed at 0.15

* * *

- protocol-description: Stability in human blood serum (radio-HPLC)
- Format: in vitro ADME
- condition-label: 37 °C, 2 min, n=2, read-out: Serum stability (% of intact ligand)
metric: remaining at 2 min (%)
Numbers only, in %.

Quick note, remaining at 2 min for NC(=O)CNC(=O)CNC(=O)[C@H](CCCCNC(=O)CCCCc1cn(C2O[C@H](CO)[C@H](O)[C@H](O)[C@H]2O)nn1)NC(=O)CNC(=O)CNC(=O)[C@H](CCCCNC(=O)CCCCc1cn(C2O[C@H](CO)[C@H](O)[C@H](O)[C@H]2O)nn1)NC(=O)CNC(=O)CNC(=O)[C@H](CCCCNC(=O)CCCCc1cn(C2O[C@H](CO)[C@H](O)[C@H](O)[C@H]2O)nn1)NC(=O)CCCNC(=O)CC[C@H](C(=O)O)N1CCN(CC(=O)O)CCN(CC(=O)O)CC1 (stereo partly shown) [[68Ga]Ga-TriLysan, metal not drawn] landed at 99.9

* * *

- protocol-description: Biodistribution studies in BALB/c mice
- Type: in vivo
- condition-label: female, mouse, iv, total radioactivity; Liver, 10 min p.i., healthy BALB/c mice, 0.1 nmol i.v.; read-out: Biodistribution data, Liver
metric: tissue uptake at 10 min (%ID/g)
One number for each entry, in %ID/g.

Quick note, tissue uptake at 10 min for NC(=O)CNC(=O)CNC(=O)[C@H](CCCCNC(=O)CCCCc1cn(C2O[C@H](CO)[C@H](O)[C@H](O)[C@H]2O)nn1)NC(=O)CNC(=O)CNC(=O)[C@H](CCCCNC(=O)CCCCc1cn(C2O[C@H](CO)[C@H](O)[C@H](O)[C@H]2O)nn1)NC(=O)CNC(=O)CNC(=O)[C@H](CCCCNC(=O)CCCCc1cn(C2O[C@H](CO)[C@H](O)[C@H](O)[C@H]2O)nn1)NC(=O)CCCNC(=O)CC[C@H](C(=O)O)N1CCN(CC(=O)O)CCN(CC(=O)O)CC1 (stereo partly shown) [[68Ga]Ga-TriLysan, metal not drawn] landed at 9.45

Where do these numbers come from? They come from patent EP4640240A1.
